Measured Population Healthy Nuclei (%) accompanies every entry in the list below.
- Test system: Fibroblast
- Assay notes: Multiplex assay against human fibroblast
- Format: toxicity, cell-based
- Assay conditions: 24 h, 1 µM, compound concentration 1 uM, replicate 2
Kindly report the value followed by its unit.

Known Population Healthy Nuclei (%) results, listed for orientation:
[[record]]
compound = "CSc1nc(NC2CCCC2)c([N+](=O)[O-])c(NC2CCCC2)n1"
target_under_test = "Fibroblast"
experimental_result = "44%"

[[record]]
compound = "C[C@H](NC(=O)CNC(=O)c1cccc(Cl)c1)c1ccccc1"
target_under_test = "Fibroblast"
experimental_result = "50%"

[[record]]
compound = "O=c1ccc2ccc(OCCCCN3CCN(c4cccc5sccc45)CC3)cc2[nH]1"
target_under_test = "Fibroblast"
experimental_result = "52%"

[[record]]
compound = "Cc1c(Cc2ccc3ccccc3n2)c2cc(F)ccc2n1CC(=O)O"
target_under_test = "Fibroblast"
experimental_result = "52%"

[[record]]
compound = "N[C@](CC1c2ccccc2Oc2ccccc21)(C(=O)O)[C@H]1C[C@@H]1C(=O)O"
target_under_test = "Fibroblast"
experimental_result = "49%"

[[record]]
compound = "CC(C)(C)c1ccc(CSc2cnn(C(C)(C)C)c(=O)c2Cl)cc1"
target_under_test = "Fibroblast"
experimental_result = "48%"


Now take the following compound into account.
Requested read-out: Population Healthy Nuclei (%). Entry: CCC(=O)OCC(=O)[C@@]1(OC(=O)CC)[C@@H](C)C[C@H]2[C@@H]3CCC4=CC(=O)C=C[C@]4(C)[C@@]3(Cl)[C@@H](O)C[C@@]21C [BECLOMETHASONE DIPROPIONATE] 45%

Sourced from ChEMBL document CHEMBL5058577
